Conditions: buffer; pH 7.4; 200.0 µM
reported endpoint: solubility kinetic

// query Find the measured solubility kinetic of COc1ccc(-n2c(C)ccc2C)c([N+](=O)[O-])c1 and report it.
// result 22.7 µg/mL

// query Find the measured solubility kinetic of Cl.Oc1ccccc1C1NCc2ccccc2-n2cccc21 (configuration not stated) and report it.
// result 32.2 µg/mL

// query Find the measured solubility kinetic of CC(C)(C)CC(=O)Nc1ccc(S(=O)(=O)N2CCCC2)cc1 and report it.
// result > 48.7 µg/mL

// query Find the measured solubility kinetic of COCCNc1nc2nonc2nc1N(C)Cc1ccc(C)cc1 and report it.
// result > 49.3 µg/mL

// query Find the measured solubility kinetic of Cc1cccc(OCC(=O)OC(C)CN2CCCCC2)c1.Cl (configuration not stated) and report it.
// result > 49.2 µg/mL

// query Find the measured solubility kinetic of O=C(Nc1nnc(-c2ccncc2)o1)c1ccccc1 and report it.
// result > 39.9 µg/mL

// query Find the measured solubility kinetic of C=CCN(c1ccccc1OC)S(=O)(=O)c1cccc(C(=O)OCC(=O)N2CCOCC2)c1 and report it.
// result > 71.2 µg/mL

// query Find the measured solubility kinetic of CCCCNC(=O)Nc1ccc(C2SCCS2)cc1 and report it.
// result 9.9 µg/mL

// query Find the measured solubility kinetic of CN(C(=O)c1ccco1)c1ccccc1C(=O)O and report it.
// result > 36.8 µg/mL

// query Find the measured solubility kinetic of O=C(CNc1cccc(F)c1)N1CCc2ccccc2C1 and report it.
// result 8.4 µg/mL

// query Find the measured solubility kinetic of Nc1ccccc1Sc1c[nH]c2ccccc12 and report it.
// result 27.8 µg/mL

// query Find the measured solubility kinetic of O=C(Nc1cccc(S(=O)(=O)NC2=NCCC2)c1)c1ccc(F)cc1F and report it.
// result 25.8 µg/mL

---

Conditions: buffer; pH 7.4; 200.0 µM
Record form. Attribute: solubility kinetic. Fill in for each entry.

// query Find the measured solubility kinetic of COc1ccc(NC(=S)N2CCN(S(C)(=O)=O)CC2)cc1 and report it.
// result > 49.4 µg/mL

// query Find the measured solubility kinetic of O=C(NCCCN1CCOCC1)C1Cc2c(ccc3ccccc23)O1 (stereo unspecified) and report it.
// result > 51.1 µg/mL

// query Find the measured solubility kinetic of O=C1N(c2ccccc2)C(=Nc2ccccc2)SC12CC2 and report it.
// result 41.5 µg/mL

// query Find the measured solubility kinetic of CCc1ccc(OS(=O)(=O)c2cn(C)c(=O)n(C)c2=O)cc1 and report it.
// result > 48.7 µg/mL

// query Find the measured solubility kinetic of O=C(NS(=O)(=O)c1ccccc1)c1cccc(Br)c1 and report it.
// result > 51 µg/mL

// query Find the measured solubility kinetic of CC1(C(=O)O)CCC(C(=O)Nc2ccc(Cl)c(Cl)c2)C1(C)C (stereo unspecified) and report it.
// result > 51.6 µg/mL

---

Details: buffer; pH 7.4; 200.0 µM
reported endpoint: solubility kinetic (µg/mL)
Supply the numeric figure in µg/mL, leaving out any unit text.

// query Find the measured solubility kinetic of O=C1CN(C(=O)COC(=O)c2ccc(C(F)(F)F)cc2)c2ccccc2N1 and report it.
// result 2.4

// query Find the measured solubility kinetic of COc1ccc(NC(=O)c2cc3ccccc3o2)cc1S(=O)(=O)N1CCCCC1 and report it.
// result 9.2

// query Find the measured solubility kinetic of Cc1cc(NC(=O)COC(=O)CC2CCCC2)c([N+](=O)[O-])cc1C and report it.
// result 3

// query Find the measured solubility kinetic of c1ccc2c(c1)OCCc1c-2[nH]c2ccccc12 and report it.
// result 3

// query Find the measured solubility kinetic of Cc1ccc(NC(=S)Nc2ccc(OC(F)F)c(Cl)c2)cc1F and report it.
// result 3.5

// query Find the measured solubility kinetic of C=CCn1c(/N=C/c2ccc(OC)cc2)nc2ccccc21 and report it.
// result 40.6

// query Find the measured solubility kinetic of O=C(c1cc2ccccc2s1)N1CCN(c2ccccn2)CC1 and report it.
// result 8.9

Origin of values: PubChem BioAssay AID1996
